- system.name: hGIPR (Homo sapiens, UniProt P48546)
- Sequence (P48546 22-466): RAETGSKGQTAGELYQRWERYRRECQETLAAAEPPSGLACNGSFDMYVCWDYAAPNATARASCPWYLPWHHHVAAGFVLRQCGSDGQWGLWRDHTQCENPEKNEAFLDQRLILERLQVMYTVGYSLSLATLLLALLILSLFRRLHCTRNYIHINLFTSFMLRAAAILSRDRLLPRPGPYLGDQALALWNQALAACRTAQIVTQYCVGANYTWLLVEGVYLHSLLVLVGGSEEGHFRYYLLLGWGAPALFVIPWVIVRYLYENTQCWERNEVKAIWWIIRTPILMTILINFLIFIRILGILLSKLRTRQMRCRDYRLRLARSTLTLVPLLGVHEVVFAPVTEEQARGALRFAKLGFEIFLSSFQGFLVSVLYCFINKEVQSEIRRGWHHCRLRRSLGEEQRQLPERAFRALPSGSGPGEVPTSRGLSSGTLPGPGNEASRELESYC
- assay.name: Functional cAMP activity in the presence of 1% HSA
- Format: cell-based
- test.parameters: read-out: cAMP Rel EC50, hGIPR
Starred links: 1 amine or outer side, 2 acyl side, 3 side chain; linkers in the order of their positions; H or OH if unused. Non-standard residues stand in square brackets, D forms with d. Groups on a side chain read outwards from the residue. No end group written: not given here. *: point of attachment. C18 diacid = O=C(O)CCCCCCCCCCCCCCCCC(=O)*; γGlu = O=C(O)[C@H](CCC(=O)[*:2])N[*:1]; αMeY = C[C@](N)(Cc1ccc(O)cc1)C(=O)O; Hyp = O=C(O)[C@@H]1C[C@@H](O)CN1; 4Pal = N[C@@H](Cc1ccncc1)C(=O)O; αMeL = CC(C)C[C@](C)(N)C(=O)O; Orn = NCCC[C@H](N)C(=O)O; AEEA = NCCOCCOCC(=O)O; Aib = CC(C)(N)C(=O)O
So I've got a bunch of substances here, and I need their pEC50 values.
Give bare numbers, as −log10 of the molar value.

Sample records with pEC50:
Sure, the documented pEC50 for H-Y[Aib]QGTFTSDFS[Orn][αMeL]LDKK([AEEA-γGlu-C18 diacid])AQ[Aib]AFIEYLLEGGPSSGAPP[Hyp]GGS-NH2 [Example 237] is 7.51

Sure, the documented pEC50 for H-Y[Aib]QGTFTSDFS[Orn][αMeL]LDKK([AEEA-γGlu-C18 diacid])AQ[Aib]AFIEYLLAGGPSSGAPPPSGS-NH2 [Example 95] is 7.74

---
Sure, the documented pEC50 for Y[Aib]QGTFTSD[4Pal]SQ[αMeL]LDKK([AEEA-γGlu-C18 diacid])AQ[Aib]AFIE[αMeY]LIEGGPSSGAPPPSGS-NH2 [Example 838] is 7.63

====

- system.name: human GcgR (Homo sapiens)
- Sequence (P47871 26-477): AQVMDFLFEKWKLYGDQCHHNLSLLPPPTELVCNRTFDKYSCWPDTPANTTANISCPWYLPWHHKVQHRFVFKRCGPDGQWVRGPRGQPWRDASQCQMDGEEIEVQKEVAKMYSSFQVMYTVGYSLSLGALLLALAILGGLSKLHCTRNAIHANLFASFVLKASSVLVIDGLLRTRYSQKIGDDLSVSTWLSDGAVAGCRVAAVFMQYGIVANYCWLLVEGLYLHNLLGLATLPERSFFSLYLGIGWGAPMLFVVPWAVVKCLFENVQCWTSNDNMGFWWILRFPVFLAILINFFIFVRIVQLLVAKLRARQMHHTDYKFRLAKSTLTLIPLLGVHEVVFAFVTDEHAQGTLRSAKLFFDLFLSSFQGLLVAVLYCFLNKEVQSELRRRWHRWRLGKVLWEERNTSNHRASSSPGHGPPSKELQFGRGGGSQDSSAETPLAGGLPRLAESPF
- assay.name: Functional cAMP activity in the presence of 1% HSA
- Type: cell-based
- test.parameters: read-out: cAMP Rel EC50, hGcgR
Starred links: 1 amine or outer side, 2 acyl side, 3 side chain; linkers in the order of their positions; H or OH if unused. Non-standard residues stand in square brackets, D forms with d. Groups on a side chain read outwards from the residue. No end group written: not given here. *: point of attachment. C18 diacid = O=C(O)CCCCCCCCCCCCCCCCC(=O)*; αMePhe(2-F) = C[C@](N)(Cc1ccccc1F)C(=O)O; γGlu = O=C(O)[C@H](CCC(=O)[*:2])N[*:1]; αMe4Pal = C[C@](N)(Cc1ccncc1)C(=O)O; αMeY = C[C@](N)(Cc1ccc(O)cc1)C(=O)O; 4Pal = N[C@@H](Cc1ccncc1)C(=O)O; αMeL = CC(C)C[C@](C)(N)C(=O)O; αMeS = C[C@](N)(CO)C(=O)O; Orn = NCCC[C@H](N)C(=O)O; AEEA = NCCOCCOCC(=O)O; Aib = CC(C)(N)C(=O)O
Please assign No whenever EC50 is at or above 400 nM, and Yes whenever it is below.

[Q] Hello, is EC50 of the following substance strictly smaller than 400 nM? H-Y[Aib]QGT[αMePhe(2-F)]TSD[4Pal]SILLD[Orn]K([γGlu-γGlu-C18 diacid])AQ[Aib]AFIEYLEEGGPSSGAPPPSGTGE-NH2 [Example 514]
[A] No

---
[Q] Hello, is EC50 of the following substance strictly smaller than 400 nM? H-Y[Aib]QGTFTSD[4Pal]S[Orn][αMeL]LDKK([γGlu-γGlu-C18 diacid])AQ[αMe4Pal]AFIE[αMeY]LIAGGPSSGAPPPEGS-NH2 [Example 1015]
[A] Yes

[Q] Hello, is EC50 of the following substance strictly smaller than 400 nM? H-Y[Aib]QGT[αMePhe(2-F)]TSD[4Pal][αMeS]I[αMeL]LD[Orn]K([AEEA-γGlu-C18 diacid])AQ[αMe4Pal]EFI[dE][αMeY]LIEGGPSSGAPPPSGGGEE-NH2 [Example 1214]
[A] Yes

[Q] Hello, is EC50 of the following substance strictly smaller than 400 nM? H-Y[Aib]QGTFTSD[4Pal]SQ[αMeL]LD[Orn]K([γGlu-γGlu-C18 diacid])AQ[αMe4Pal]AFIEYLIAGGPSSGEPPPSGSE [Example 977]
[A] No

[Q] Hello, is EC50 of the following substance strictly smaller than 400 nM? H-Y[Aib]QGT[αMePhe(2-F)]TSD[4Pal]SI[αMeL]LD[Orn]K([γGlu-γGlu-C18 diacid])AQ[αMe4Pal][Orn]FI[dE][αMeY]LIEGGPSSGEPPPEGTGE-NH2 [Example 688]
[A] Yes

====

So I've got a bunch of substances here, and I need their EC50 values.
- system.name: hGLP-1R (Homo sapiens, UniProt P43220)
- Sequence (P43220 24-463): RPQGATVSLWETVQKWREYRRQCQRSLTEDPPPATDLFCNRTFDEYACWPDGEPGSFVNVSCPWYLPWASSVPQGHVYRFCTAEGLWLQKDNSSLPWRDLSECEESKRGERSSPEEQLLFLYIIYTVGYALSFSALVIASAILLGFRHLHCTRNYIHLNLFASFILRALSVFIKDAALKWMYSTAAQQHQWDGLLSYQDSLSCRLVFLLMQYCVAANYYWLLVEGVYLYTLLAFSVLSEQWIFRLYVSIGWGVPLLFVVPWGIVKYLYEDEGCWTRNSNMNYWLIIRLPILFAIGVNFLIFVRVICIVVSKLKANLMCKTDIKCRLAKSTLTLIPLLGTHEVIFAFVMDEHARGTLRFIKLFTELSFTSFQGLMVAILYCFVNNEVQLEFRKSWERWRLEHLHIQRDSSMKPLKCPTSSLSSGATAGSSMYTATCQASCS
- assay.name: Functional cAMP activation in the presence of 0.1% casein (no HSA)
- Assay type: cell-based
- test.parameters: read-out: Relative cAMP EC50, hGLP-1R
Starred links: 1 amine or outer side, 2 acyl side, 3 side chain; linkers in the order of their positions; H or OH if unused. Non-standard residues stand in square brackets, D forms with d. Groups on a side chain read outwards from the residue. No end group written: not given here. *: point of attachment. C18 diacid = O=C(O)CCCCCCCCCCCCCCCCC(=O)*; αMePhe(2-F) = C[C@](N)(Cc1ccccc1F)C(=O)O; γGlu = O=C(O)[C@H](CCC(=O)[*:2])N[*:1]; αMe4Pal = C[C@](N)(Cc1ccncc1)C(=O)O; αMeY = C[C@](N)(Cc1ccc(O)cc1)C(=O)O; 4Pal = N[C@@H](Cc1ccncc1)C(=O)O; αMeL = CC(C)C[C@](C)(N)C(=O)O; αMeS = C[C@](N)(CO)C(=O)O; Orn = NCCC[C@H](N)C(=O)O; AEEA = NCCOCCOCC(=O)O; Aib = CC(C)(N)C(=O)O
Numbers only, in nM.

Sample records with EC50:
Sure, the documented EC50 for H-Y[Aib]QGT[αMePhe(2-F)]TSD[4Pal]SI[αMeL]LD[Orn]K([γGlu-γGlu-C18 diacid])AQ[αMe4Pal][Orn]FI[dE][αMeY]LIEGGPSSGEPPPEGE-NH2 [Example 683] is 0.214

Sure, the documented EC50 for H-Y[Aib]QGT[αMePhe(2-F)]TSD[4Pal][αMeS]I[αMeL]LD[Orn]K([γGlu-γGlu-C18 diacid])AQ[Aib][Orn]FI[dE][αMeY]LSEGGPSSGEPPPSGQEE-NH2 [Example 570] is 1.03

// for each substance in input: emit EC50
1. Y[Aib]QGT[αMePhe(2-F)]TSD[4Pal]SI[αMeL]LD[Orn]K([AEEA-γGlu-C18 diacid])AQ[αMe4Pal]EFI[dE][αMeY]LIEGGPSSGEPPPSGS-NH2 [Example 644]
2. Y[Aib]QGT[αMePhe(2-F)]TSD[4Pal][αMeS]I[αMeL]LD[Orn]K([AEEA-γGlu-C18 diacid])AQ[αMe4Pal]EFI[dE][αMeY]LVEGGPSSGAPPPSGGGE-NH2 [Example 769]
3. H-Y[Aib]QGT[αMePhe(2-F)]TSD[4Pal][αMeS]I[αMeL]LD[Orn]K([AEEA-γGlu-C18 diacid])AQ[αMe4Pal]EFI[dE][αMeY]LIEGGPSSGAPPPSGGGE-NH2 [Example 741]

[A]
1. 0.309
2. 0.247
3. 0.239

====

- system.name: hGLP-1R (Homo sapiens, UniProt P43220)
- assay.name: Functional cAMP activation in the presence of 0.1% casein (no HSA);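 further: intracellular cAMP rise after 30 min at 37 °C read by HTRF, normalized between buffer only (0%) and maximal control ligand (100%), four-parameter variable-slope fit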
- Type: cell-based
- test.parameters: read-out: Relative cAMP EC50, hGLP-1R
Starred links: 1 amine or outer side, 2 acyl side, 3 side chain; linkers in the order of their positions; H or OH if unused. Non-standard residues stand in square brackets, D forms with d. Groups on a side chain read outwards from the residue. No end group written: not given here. *: point of attachment. C18 diacid = O=C(O)CCCCCCCCCCCCCCCCC(=O)*; αMePhe(2-F) = C[C@](N)(Cc1ccccc1F)C(=O)O; γGlu = O=C(O)[C@H](CCC(=O)[*:2])N[*:1]; αMe4Pal = C[C@](N)(Cc1ccncc1)C(=O)O; αMeY = C[C@](N)(Cc1ccc(O)cc1)C(=O)O; 4Pal = N[C@@H](Cc1ccncc1)C(=O)O; αMeL = CC(C)C[C@](C)(N)C(=O)O; αMeS = C[C@](N)(CO)C(=O)O; Orn = NCCC[C@H](N)C(=O)O; AEEA = NCCOCCOCC(=O)O; Aib = CC(C)(N)C(=O)O
measured.endpoint: log10(EC50) (log10 of the value in nM)
Heads up, the numbers here are log10 of EC50 in nM units.

Sample records with log10(EC50):
Sure, the documented log10(EC50) for H-Y[Aib]QGT[αMePhe(2-F)]TSD[4Pal][αMeS]I[αMeL]LD[Orn]K([AEEA-γGlu-C18 diacid])AQ[αMe4Pal]EFI[dE][αMeY]LIEGGPSSGAPPPSGTGE-NH2 [Example 714] is -0.54

Sure, the documented log10(EC50) for Y[Aib]QGT[αMePhe(2-F)]TSD[4Pal]SI[αMeL]LD[Orn]K([AEEA-AEEA-γGlu-C18 diacid])AQ[αMe4Pal]EFI[dE][αMeY]LLEGGPSSGAPPPSGE-NH2 [Example 613] is -0.16

Sure, the documented log10(EC50) for H-Y[Aib]QGT[αMePhe(2-F)]TSD[4Pal]SILLDKK([γGlu-γGlu-C18 diacid])AQ[Aib]AFIE[αMeY]LEEGGPSSGAPPPSGEGE-NH2 [Example 667] is -0.38

// for each substance in input: emit log10(EC50)
1. H-Y[Aib]QGT[αMePhe(2-F)]TSD[4Pal][αMeS]I[αMeL]LD[Orn]K([AEEA-γGlu-C18 diacid])AQ[αMe4Pal]EFI[dE][αMeY]LIEGGPSSGAPPPSGSE-NH2 [Example 712]
2. Y[Aib]QGT[αMePhe(2-F)]TSD[4Pal]SI[αMeL]LD[Orn]K([AEEA-γGlu-C18 diacid])AQ[αMe4Pal][Orn]FI[dE][αMeY]LIEGGPSSGEPPPEGT[dE]-NH2 [Example 691]
3. H-Y[Aib]QGT[αMePhe(2-F)]TSD[4Pal][αMeS]I[αMeL]LD[Orn]K([γGlu-γGlu-C18 diacid])AQ[αMe4Pal]EFI[dE][αMeY]LIEGGPSSGAPPPSGGGE-NH2 [Example 743]

[A]
-0.59
-0.59
-0.59

// for each substance in input: emit log10(EC50)
1. H-Y[Aib]QGT[αMePhe(2-F)]TSD[4Pal]SI[αMeL]LD[Orn]K([AEEA-γGlu-C18 diacid])AQ[αMe4Pal][Orn]FI[dE]YLIEGGPSSGEPPPEGT-NH2 [Example 500]
2. H-Y[Aib]QGT[αMePhe(2-F)]TSD[4Pal][αMeS]I[αMeL]LD[Orn]K([AEEA-γGlu-C18 diacid])AA[Aib]EFI[dE][αMeY]LVEGGPSSGAPPPSGS-NH2 [Example 693]
3. H-Y[Aib]QGT[αMePhe(2-F)]TSD[4Pal][αMeS]I[αMeL]LD[Orn]K([γGlu-γGlu-C18 diacid])AQ[Aib][Orn]FI[dE]YLIEGGPSSGEPPPSGTEE-NH2 [Example 535]
4. H-Y[Aib]QGT[αMePhe(2-F)]TSD[4Pal][αMeS]ILLD[Orn]K([γGlu-γGlu-C18 diacid])AQ[Aib][Orn]FI[dE]YLIEGGPSSGEPPPSGTEE-NH2 [Example 576]
5. H-Y[Aib]QGT[αMePhe(2-F)]TSD[4Pal][αMeS]I[αMeL]LD[Orn]K([AEEA-γGlu-C18 diacid])AQ[Aib][Orn]FI[dE][αMeY]LIEGGPSSGEPEPSEG-NH2 [Example 481]
6. H-Y[Aib]QGT[αMePhe(2-F)]TSD[4Pal][αMeS]I[αMeL]LD[Orn]K([γGlu-γGlu-C18 diacid])AQ[Aib]NFI[dE][αMeY]LQEGGPSSGEPPPEGT-NH2 [Example 525]
7. H-Y[Aib]QGT[αMePhe(2-F)]TSD[4Pal][αMeS]I[αMeL]LD[Orn]K([AEEA-γGlu-C18 diacid])AQ[αMe4Pal]EFI[dE][αMeY]LIEGGPSSGEPPPEGGGE-NH2 [Example 760]

[A]
1. -0.21
2. -0.79
3. -0.38
4. -0.28
5. -0.69
6. -0.37
7. -0.40

// for each substance in input: emit log10(EC50)
1. Y[Aib]QGT[αMePhe(2-F)]TSD[4Pal][αMeS]I[αMeL]LD[Orn]K([AEEA-γGlu-C18 diacid])AA[Aib]EFI[dE][αMeY]LIEGGPSSGAPPPSGE-NH2 [Example 701]
2. H-Y[Aib]QGT[αMePhe(2-F)]TSD[4Pal][αMeS]I[αMeL]LD[Orn]K([γGlu-γGlu-C18 diacid])AQ[αMe4Pal]EFI[dE][αMeY]LIEGGPSSGAPPPSGTGE-NH2 [Example 718]
3. H-Y[Aib]QGT[αMePhe(2-F)]TSD[4Pal][αMeS]I[αMeL]LD[Orn]K([γGlu-γGlu-C18 diacid])AQ[Aib][Orn]FI[dE]YLSEGGPSSGEPPPSGTE-NH2 [Example 530]
4. H-Y[Aib]QGT[αMePhe(2-F)]TSD[4Pal]SI[αMeL]LD[Orn]K([AEEA-γGlu-C18 diacid])AQ[αMe4Pal][Orn]FI[dE][αMeY]LEEGGPSSGEPPPEGT-NH2 [Example 506]
5. H-Y[Aib]QGT[αMePhe(2-F)]TSD[4Pal][αMeS]ILLD[Orn]K([γGlu-γGlu-C18 diacid])AQ[Aib][Orn]FI[dE][αMeY]LQEGGPSSGEPPPSGAEE-NH2 [Example 575]
6. H-Y[Aib]QGT[αMePhe(2-F)]TSD[4Pal][αMeS]I[αMeL]LD[Orn]K([AEEA-AEEA-γGlu-C18 diacid])AQ[Aib][Orn]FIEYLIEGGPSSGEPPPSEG-NH2 [Example 491]

[A]
-0.66
-0.67
0.69
0.33
-0.36
-0.77

Sure, the documented log10(EC50) for H-Y[Aib]QGT[αMePhe(2-F)]TSD[4Pal]SILLDKK([γGlu-γGlu-C18 diacid])AQ[Aib]AFIEYLEEGGPSSGAPPPSGSGE-NH2 [Example 618] is 0.18

Every entry's value here was drawn from patent US20240270821A1.
